meta.source: patent US20130029928A1

Assay: Phase I study CXR1002-001: plasma pharmacokinetics (LC-MS/MS)
Type: in vivo, human
Conditions: human, plasma, po, 1200 mg, Patient 036, 1200 mg weekly oral dose, Time 360 hr (Day 16); read-out: Concentration (plasma level)
readout.kind: concentration at 360 hr
# include the unit after the value

Please report the measured concentration at 360 hr for O=C(O)C(F)(F)C(F)(F)C(F)(F)C(F)(F)C(F)(F)C(F)(F)C(F)(F)F 657 µM

---

Assay: Phase I study CXR1002-001: plasma pharmacokinetics (LC-MS/MS)
Format: in vivo, human
Details: human, plasma, oral, 600 mg, Patient 024, 600 mg, person, plasma, 696 hr (Day 30); read-out: Concentration
readout.kind: concentration at 696 h (µM)
One number for each entry, in µM.

Please report the measured concentration at 696 h for O=C(O)C(F)(F)C(F)(F)C(F)(F)C(F)(F)C(F)(F)C(F)(F)C(F)(F)F 811
